System: Plasmodium falciparum
Assay: In vitro anti-MDR effect in mefloquine resistant TM91C235 cell lines at 500 ng/ml concentration in the presence of 5 ng/mL mefloquine
Type: functional
I'd appreciate it if you marked entries y when Suppression is lower than 70% and n when it is not.

{"Smiles notation": "CN(C)CCCCN1c2ccccc2Sc2ccccc21", "System under test": "Plasmodium falciparum", "Group label": "y"}
{"Smiles notation": "c1ccc(CN(CCCCN2c3ccccc3Sc3ccccc32)Cc2ccccc2)cc1", "System under test": "Plasmodium falciparum", "Group label": "y"}
{"Smiles notation": "c1ccc2c(c1)Sc1ccccc1N2CCCCN1CCCC1", "System under test": "Plasmodium falciparum", "Group label": "y"}
{"Smiles notation": "CCN(CC)CCCCN1c2ccccc2CCc2ccccc21", "System under test": "Plasmodium falciparum", "Group label": "n"}
{"Smiles notation": "CN(CCCCN1c2ccccc2Sc2ccccc21)Cc1ccccc1", "System under test": "Plasmodium falciparum", "Group label": "y"}
{"Smiles notation": "c1ccc(CN(CCCCN2c3ccccc3CCc3ccccc32)Cc2ccccc2)cc1", "System under test": "Plasmodium falciparum", "Group label": "y"}
{"Smiles notation": "CN(CCCCN1c2ccccc2CCc2ccccc21)Cc1ccccc1", "System under test": "Plasmodium falciparum", "Group label": "y"}
{"Smiles notation": "c1ccc2c(c1)CCc1ccccc1N2CCCCN1CCCC1", "System under test": "Plasmodium falciparum", "Group label": "n"}
{"Smiles notation": "CCN(CC)CCCCN1c2ccccc2Sc2ccccc21", "System under test": "Plasmodium falciparum", "Group label": "y"}
